Just for reference, patent US12139487B2 is where these values come from.

subjectOfTest: BRM (Homo sapiens, UniProt P51531)
Construct: made in house; host or cells: High Five insect cells
Sequence (P51531 whole entry): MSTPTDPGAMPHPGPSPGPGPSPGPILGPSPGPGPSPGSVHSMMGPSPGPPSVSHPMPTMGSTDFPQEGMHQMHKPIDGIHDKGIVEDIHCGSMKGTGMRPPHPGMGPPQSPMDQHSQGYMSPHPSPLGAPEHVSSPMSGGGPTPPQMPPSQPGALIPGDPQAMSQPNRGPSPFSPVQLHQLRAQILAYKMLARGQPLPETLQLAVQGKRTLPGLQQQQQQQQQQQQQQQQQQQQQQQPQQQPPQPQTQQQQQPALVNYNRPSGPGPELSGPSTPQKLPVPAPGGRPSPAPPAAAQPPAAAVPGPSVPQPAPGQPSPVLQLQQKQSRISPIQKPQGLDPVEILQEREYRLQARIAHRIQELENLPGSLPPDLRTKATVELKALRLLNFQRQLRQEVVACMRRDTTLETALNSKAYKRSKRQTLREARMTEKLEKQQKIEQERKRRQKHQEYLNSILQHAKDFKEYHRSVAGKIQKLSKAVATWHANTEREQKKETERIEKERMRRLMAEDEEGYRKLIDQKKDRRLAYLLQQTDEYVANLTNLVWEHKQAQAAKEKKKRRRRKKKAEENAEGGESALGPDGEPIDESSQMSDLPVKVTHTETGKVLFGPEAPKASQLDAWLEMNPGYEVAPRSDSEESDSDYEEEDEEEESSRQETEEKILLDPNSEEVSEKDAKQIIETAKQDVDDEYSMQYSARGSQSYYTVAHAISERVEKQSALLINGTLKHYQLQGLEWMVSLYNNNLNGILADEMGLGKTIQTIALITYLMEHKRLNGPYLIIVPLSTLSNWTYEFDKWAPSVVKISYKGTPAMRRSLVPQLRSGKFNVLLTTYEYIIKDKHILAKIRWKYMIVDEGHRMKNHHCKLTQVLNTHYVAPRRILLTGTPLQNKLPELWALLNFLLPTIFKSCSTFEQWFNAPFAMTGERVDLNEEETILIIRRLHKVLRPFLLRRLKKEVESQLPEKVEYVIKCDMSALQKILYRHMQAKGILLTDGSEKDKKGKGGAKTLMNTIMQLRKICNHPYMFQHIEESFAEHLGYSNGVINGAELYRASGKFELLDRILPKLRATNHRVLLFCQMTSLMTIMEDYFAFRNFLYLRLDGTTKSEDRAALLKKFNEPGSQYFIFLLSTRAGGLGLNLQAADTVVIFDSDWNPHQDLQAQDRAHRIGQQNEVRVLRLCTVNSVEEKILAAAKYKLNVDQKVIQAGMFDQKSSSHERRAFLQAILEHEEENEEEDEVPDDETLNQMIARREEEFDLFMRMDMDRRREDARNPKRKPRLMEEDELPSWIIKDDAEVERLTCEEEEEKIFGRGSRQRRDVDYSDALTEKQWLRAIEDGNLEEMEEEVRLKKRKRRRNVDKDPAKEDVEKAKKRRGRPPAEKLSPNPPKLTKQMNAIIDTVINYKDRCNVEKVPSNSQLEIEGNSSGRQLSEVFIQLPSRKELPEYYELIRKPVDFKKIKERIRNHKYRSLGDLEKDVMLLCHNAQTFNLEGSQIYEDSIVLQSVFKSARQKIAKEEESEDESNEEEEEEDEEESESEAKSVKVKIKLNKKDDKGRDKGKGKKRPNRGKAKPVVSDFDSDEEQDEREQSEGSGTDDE
experiment: ATPase catalytic activity assay (ADP-Glo), BRM
Type: biochemical
testConditions: ATPase assay, selectivity BRG1/BRM, Table 10
Exercise: for every item that follows, state its recorded Ratio (BRG1 IC50 (μM) divided by BRM IC50 (μM)).
Format: numeric value only, no unit, no commentary.

For this molecule ( CC(C)c1cnc2c(c1)OCCN2c1ccc2cnc(CNC(=O)c3cc(F)c4c(c3)S(=O)(=O)[C@@H](F)CCO4)cc2n1 ), measured Ratio (BRG1 IC50 (μM) divided by BRM IC50 (μM)) is 18.45

For this molecule ( C[C@H]1[C@H](F)CN1c1cnc2c(c1)OCCN2c1ccc2cnc(CNC(=O)c3cc(F)c4c(c3)S(=O)(=O)[C@@H](F)CCO4)cc2n1 ), measured Ratio (BRG1 IC50 (μM) divided by BRM IC50 (μM)) is 19.04

For this molecule ( O=C(NCc1cc2nc(-c3cccc(OC(F)F)c3)ccc2cn1)c1cc(F)c2c(c1)S(=O)(=O)[C@@H](F)COC2 ), measured Ratio (BRG1 IC50 (μM) divided by BRM IC50 (μM)) is 29.64

For this molecule ( C[C@@H]1C[C@H]1c1cnc2c(c1)OCCN2c1ccc2cnc(CNC(=O)c3cc(F)c4c(c3)S(=O)(=O)[C@@H](F)CCO4)cc2n1 ), measured Ratio (BRG1 IC50 (μM) divided by BRM IC50 (μM)) is 22.17

For this molecule ( C[C@H]1[C@@H](F)CN1c1cnc2c(c1)OCCN2c1ccc2cnc(CNC(=O)c3cc(F)c4c(c3)S(=O)(=O)[C@@H](F)CCO4)cc2n1 ), measured Ratio (BRG1 IC50 (μM) divided by BRM IC50 (μM)) is 13.99

For this molecule ( O=C(NCc1cc2nc(N3CCCc4c3ccnc4OC3CC3)ccc2cn1)c1cc(F)c2c(c1)S(=O)(=O)[C@@H](F)CCO2 ), measured Ratio (BRG1 IC50 (μM) divided by BRM IC50 (μM)) is 16.02

###

Test system: BRM-dependent transcription (BRG1 mutant lung cancer cell line A549)
experiment: BRM-dependent transcription, MMTV luciferase reporter in BRG1 mutant A549 cells
Format: cell-based
testConditions: MMTV luciferase reporter cell lines, selectivity BRG1/BRM, Table 11
Protocol: The potential inhibitory effects of compounds on BRG1 and BRM dependent transcription was study by testing the activity of against the BRG1 mutant lung cancer cell line A549 and a MDA cell line with BRM removed by CRISPR. […] Luciferase transcription was induced by dexamethasone in the presence of compound at different concentrations and luminescence was measured using a plate reader 6 hours after stimulation.
Answer Criterion not met if Ratio (MDA-MMTV IC50 (μM) divided by A549-MMTV IC50 (μM)) is under 30, and Criterion met if it is 30 or more.

Task: # check: Ratio (MDA-MMTV IC50 (μM) divided by A549-MMTV IC50 (μM)) of COc1nc(-c2ccc3cnc(CNC(=O)c4cc(Cl)c5c(c4)S(=O)(=O)[C@@H](F)CCO5)cc3n2)ccc1C(F)F is greater than or equal to 30
Result: Criterion not met

Task: # check: Ratio (MDA-MMTV IC50 (μM) divided by A549-MMTV IC50 (μM)) of COCCOc1cnc2c(c1)OCCN2c1ccc2cnc(CNC(=O)c3cc(Br)c4c(c3)S(=O)(=O)[C@@H](F)COC4)cc2n1 is greater than or equal to 30
Result: Criterion not met

Task: # check: Ratio (MDA-MMTV IC50 (μM) divided by A549-MMTV IC50 (μM)) of [2H]C([2H])([2H])C([2H])([2H])Oc1nc([C@H](F)CF)ccc1-c1ccc2cnc(CNC(=O)c3cc(Br)c4c(c3)S(=O)(=O)[C@@H](F)COC4)cc2n1 is greater than or equal to 30
Result: Criterion met

Task: # check: Ratio (MDA-MMTV IC50 (μM) divided by A549-MMTV IC50 (μM)) of COc1nc(OC(F)F)ccc1-c1ccc2cnc(CNC(=O)c3cc(Cl)c4c(c3)S(=O)(=O)[C@@H](F)COC4)cc2n1 is greater than or equal to 30
Result: Criterion not met

Task: # check: Ratio (MDA-MMTV IC50 (μM) divided by A549-MMTV IC50 (μM)) of O=C(NCc1cc2nc(-c3ccc([C@@H](F)CF)nc3OC(F)F)ccc2cn1)c1cc(F)c2c(c1)S(=O)(=O)[C@@H](F)CCO2 is greater than or equal to 30
Result: Criterion not met
